Please go through the items and note down their apparent KD of MS2 coat protein.
System: MS2 coat protein
Test: apparent KD of MS2 coat protein; designed switch direction (-1 OFF switch, 1 ON switch): 1; higher = weaker reporter binding
Conditions: Eterna round: R95; input ligand: FMN 200 uM
Note: unit µM is implicit; provide only the numeric part.

Inquiry: Would you kindly share the measured apparent KD of MS2 coat protein for GGAGAGAGAGCGGAGGAUAUUCAAGGAGAGACAUGAGGAUCACCCAUGUAAGAGAGAGAGGAGAGGAAGAAGGCUGAGAGAGAGG [Altered State 2-10 - Jieux - Same State 2] (puzzle: Same State 2) ?
Reply text: 0.0321

Inquiry: Could you share which apparent KD of MS2 coat protein value was measured for AUUAAACAUGAGGAUCACCCAUGUCAACAAAGUCGAGGAUAUGGGCAAAUAAAAUAAGAUCCAGAAGGCGAAUAAU [salish99_ss1_r3_067] (puzzle: Same State 1) ?
Reply text: 0.0557

Inquiry: Which measured apparent KD of MS2 coat protein value corresponds to CUUGAUACACAUGAGGAUCACCCAUGUAUCAAGCUUUUUGCUCGUGUUAUUAUUUCCUUUAUUAGGAAUAUUAGGAA [rhiju-sequester-tail] (puzzle: Sensor for hsa-mir-208a version 2) ?
Reply text: 0.0249

Inquiry: What does the record list as apparent KD of MS2 coat protein for UGUAAACAUGAGGAUCACCCAUGUAAUAUAAUGGGAGGAUAUCUGAAUUAAUUAAAUUAAGGAGAAGGCCUAAUGU [Mat - Same State 1 - Mod of Eli - D47] (puzzle: Same State 1) ?
Reply text: 0.0532

Inquiry: Give the measured apparent KD of MS2 coat protein of AGUCCAGCCUGAGCUGGACAAAAGCAUGUACAUGAGGAUCACCCAUGUUCAUGUACAAGCUUUUUGCUCGUCUUUAA [salish99_208a_r3_096x] (puzzle: Sensor for hsa-mir-208a) .
Reply text: 0.658

----------
Tested on: MS2 coat protein
Experiment: apparent KD of MS2 coat protein; higher = weaker reporter binding
Conditions: Eterna round: R107; input ligand: theophylline 2 mM
Record 1 whenever apparent KD of MS2 coat protein is at 40 nM or higher; record -1 when lower.

Inquiry: Is the recorded value of apparent KD of MS2 coat protein equal to or greater than 40 nM for this sequence? AAAAUAAAGGCGGCCGCCACUAGAGUUAGGCAUAUGUACUGGGUAACAUGAGGAUCACCCAUGUAUAGGACCGGGCCAUAAUAAA [Same State - Tryptophan B (Freestyle 1)]
Reply text: -1

Inquiry: Evaluate GAGCUGAUGUAGGCCGGAUAUCCGGGAGAUACCAGUACAGAAAUGUACCCUUGGCAGCUCUUUCUUACAUGAGGAUCACCCAUGU [Ex Theophylline A 27] : apparent KD of MS2 coat protein at minimum 40 nM?
Reply text: -1

Inquiry: Please indicate if the recorded apparent KD of MS2 coat protein for GUCUUGGGAUCGGCCGCCACUACAUGAGGAUCACCCAUGUGGACAAAUAGGGUUUUUAAGCUCGGUAGGACCGGGAUUCGGACAU [Marasosoge] meets or exceeds 40 nM.
Reply text: -1

Inquiry: Assess whether reported apparent KD of MS2 coat protein for UGGUACAUGGCGGCCGCCACUUCACGUAAAAUAAAAGCUUGAGGAUCACCCAAGUAAUAAGUUGGGAGGACCGGGUCAUGUACCU sits at 40 nM or higher.
Reply text: -1

Inquiry: Check this sequence for apparent KD of MS2 coat protein at or above 40 nM: CCGGGCCCGGGCGACCGGGCCCGGACUGAAGGAGCGGGAAUAAACCCAGGUAGGUCGCAGAGAUCCACAUGAGGAUCACCCAUGU [!0.V]
Reply text: 1

Inquiry: Has UAUCCACAUGAGGAUCACCCAUGUUAGGAAGGAGCGGUGAAUGAACCAGGUAGGUCGCCUAGGUGAGGAUCAUCUAUGGAUUCGU [Exclusion - Arginine A (Freestyle 11)] a recorded apparent KD of MS2 coat protein greater than or equal to 40 nM?
Reply text: -1

Inquiry: Could you tell me if the measured apparent KD of MS2 coat protein of AUACAUGAGGAUCACCCAUGUAUAGUUGAAGGAGCGACCAGAGGGUCAGGUAGGUCGCAGCACAUGAGGAUCACCCAUGUAUUUU [#1 Exclusion - Arginine A Attempt #14 (Inspired by Pi)] reaches 40 nM or more?
Reply text: -1

Inquiry: For this sequence, is measured apparent KD of MS2 coat protein 40 nM or higher? AAUUAUCAGUCGGCCGCCACUGACACAUGAGGAUCACCCAUGUAACUUGGGUUAAAUUUACUGAACAGGACCGGGACAAAGGCUA [JR_ExcTryptoB_Sub009]
Reply text: 1

Inquiry: Item AGUAGUUGACAAAAGUCAGCUACAACUGAAGGAGCGGGUGGGUGCCCAGGUAGGUCGCAGGAACAUGAGGAUCACCCAUGUAUAA [ArgAS 3 #BothOrNeither #OpenEnded] with apparent KD of MS2 coat protein of 40 nM or above?
Reply text: -1

Inquiry: Would you say GGUCUCUGGAGCGAUACCAGCUUGAUCGUACUAGCCUGGUACAUGAGGAUCACCCAUGUAAGCCCUUGGCAGCGCUCCAGAGACC [#1 Exclusion - Theophylline B Attempt #8 (HarryS)] shows apparent KD of MS2 coat protein at minimum 40 nM?
Reply text: -1

Inquiry: Is the recorded value of apparent KD of MS2 coat protein equal to or greater than 40 nM for this sequence? ACUAGAGGUGGAAGGAGCGGGAGACAUGAGCAUCACAUGAGGAUCACCCAUGUAGGAUCAUCCCAGGUAGGUCGCCAUGUCGAAA [h.hgmullin]
Reply text: 1

Where do these numbers come from? They come from the supplement of paper PMC9170038.
